The origin of these recorded values is paper PMC4357710.

# Target under test: POLRMT (Homo sapiens, UniProt O00411 42-1230)
# Sequence (O00411 42-1230): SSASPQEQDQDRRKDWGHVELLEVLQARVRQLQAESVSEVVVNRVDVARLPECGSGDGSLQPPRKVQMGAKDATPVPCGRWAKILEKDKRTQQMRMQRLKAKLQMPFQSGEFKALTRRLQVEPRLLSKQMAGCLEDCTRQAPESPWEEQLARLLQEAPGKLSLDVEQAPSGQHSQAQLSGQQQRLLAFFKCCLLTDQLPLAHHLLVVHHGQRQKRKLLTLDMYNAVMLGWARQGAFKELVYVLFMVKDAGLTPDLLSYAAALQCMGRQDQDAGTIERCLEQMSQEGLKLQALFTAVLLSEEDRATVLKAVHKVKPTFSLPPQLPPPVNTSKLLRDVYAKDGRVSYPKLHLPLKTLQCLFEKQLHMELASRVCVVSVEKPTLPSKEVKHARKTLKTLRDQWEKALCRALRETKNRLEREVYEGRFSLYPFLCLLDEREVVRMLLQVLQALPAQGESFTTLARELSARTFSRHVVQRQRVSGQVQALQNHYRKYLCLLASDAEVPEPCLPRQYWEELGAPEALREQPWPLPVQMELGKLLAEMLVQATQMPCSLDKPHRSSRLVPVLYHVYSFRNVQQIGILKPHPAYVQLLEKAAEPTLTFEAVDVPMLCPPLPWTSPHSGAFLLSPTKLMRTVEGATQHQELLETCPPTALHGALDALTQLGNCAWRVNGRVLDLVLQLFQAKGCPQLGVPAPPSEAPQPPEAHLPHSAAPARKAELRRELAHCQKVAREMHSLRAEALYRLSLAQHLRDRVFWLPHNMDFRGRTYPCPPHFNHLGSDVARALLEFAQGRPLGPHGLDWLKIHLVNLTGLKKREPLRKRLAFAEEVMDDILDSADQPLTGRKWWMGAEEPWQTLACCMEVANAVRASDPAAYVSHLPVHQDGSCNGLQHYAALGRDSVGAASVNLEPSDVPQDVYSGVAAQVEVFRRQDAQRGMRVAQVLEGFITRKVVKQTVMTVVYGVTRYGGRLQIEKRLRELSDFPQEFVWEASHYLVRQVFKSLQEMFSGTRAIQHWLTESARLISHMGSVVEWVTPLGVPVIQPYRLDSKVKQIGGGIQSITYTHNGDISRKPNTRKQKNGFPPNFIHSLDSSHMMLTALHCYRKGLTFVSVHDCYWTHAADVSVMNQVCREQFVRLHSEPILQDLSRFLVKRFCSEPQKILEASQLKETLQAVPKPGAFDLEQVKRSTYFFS
# Assay notes: MST; 500 uM ATP (one nt incorporation, paused), 10 mM Mg2+, no TEFM; MST: 25 mM Tris-HCl pH 8.0, 100 mM NaCl, 10 mM MgCl2, 10% glycerol, 1 mM DTT, 500 uM ATP, 0.05% Tween-20, 15 nM template, 22 C; footprinting: 25 mM Tris-HCl pH
# Assay setup: protein: recombinant; label: 5' Alexa488 on DNA; 8 bp DNA:RNA hybrid; DNA 5' overhang 10 nt; RNA 5' overhang 4 nt (UUUU)
Measurement kind: pKd
// pKd here means minus log10 of the molar concentration (mol/L)

-- ask Which measured pKd value corresponds to elongation-like DNA:RNA template (18-mer DNA / 12-mer RNA) (DNA:RNA) DNA: GGGAATGCATGGCGCGGC RNA: UUUUGCCGCGCC ?
-- reply 7.32
